measurement-protocol: Rheological experiment on PA gels formed with CaCl2
Type: physicochemical
condition-summary: 5 mM PA gelled with 0.2 M CaCl2, 100 Hz, 0.5% strain, 25° C.
Non-standard residues stand in square brackets, D forms with d. Residues, ends and D or L forms follow the SMILES beside them. *: point of attachment. Phe(F5) = N[C@@H](Cc1c(F)c(F)c(F)c(F)c1F)C(=O)O; Palmitoyl = CCCCCCCCCCCCCCCC(=O)*
Kindly state plateau modulus for each of the entries shown.
Just the number please, in kPa, no unit attached.

Return the recorded plateau modulus value; entry: CCCCCCCCCCCCCCCC(=O)N[C@H](C(=O)N[C@H](C(=O)N[C@H](C(=O)N[C@@H](C)C(=O)N[C@@H](C)C(=O)N[C@@H](C)C(=O)N[C@@H](CCC(=O)O)C(=O)N[C@@H](CCC(=O)O)C(=O)N[C@@H](CCC(=O)O)C(N)=O)C(C)C)C(C)C)C(C)C [parent PA, reference compound] (Palmitoyl-VVVAAAEEE-NH2; C-terminus assumed) 10

Return the recorded plateau modulus value; entry: CCCCCCCCCCCCCCCC(=O)N[C@@H](Cc1c(F)c(F)c(F)c(F)c1F)C(=O)N[C@H](C(=O)N[C@H](C(=O)N[C@@H](C)C(=O)N[C@@H](C)C(=O)N[C@@H](C)C(=O)N[C@@H](CCC(=O)O)C(=O)N[C@@H](CCC(=O)O)C(=O)N[C@@H](CCC(=O)O)C(N)=O)C(C)C)C(C)C [PA Z1] (Palmitoyl-[Phe(F5)]VVAAAEEE-NH2; C-terminus assumed) 7.5

Return the recorded plateau modulus value; entry: CCCCCCCCCCCCCCCC(=O)N[C@H](C(=O)N[C@H](C(=O)N[C@@H](Cc1c(F)c(F)c(F)c(F)c1F)C(=O)N[C@@H](C)C(=O)N[C@@H](C)C(=O)N[C@@H](C)C(=O)N[C@@H](CCC(=O)O)C(=O)N[C@@H](CCC(=O)O)C(=O)N[C@@H](CCC(=O)O)C(N)=O)C(C)C)C(C)C [PA Z3] (Palmitoyl-VV[Phe(F5)]AAAEEE-NH2; C-terminus assumed) 2.8

Return the recorded plateau modulus value; entry: CCCCCCCCCCCCCCCC(=O)N[C@H](C(=O)N[C@@H](Cc1c(F)c(F)c(F)c(F)c1F)C(=O)N[C@H](C(=O)N[C@@H](C)C(=O)N[C@@H](C)C(=O)N[C@@H](C)C(=O)N[C@@H](CCC(=O)O)C(=O)N[C@@H](CCC(=O)O)C(=O)N[C@@H](CCC(=O)O)C(N)=O)C(C)C)C(C)C [PA Z2] (Palmitoyl-V[Phe(F5)]VAAAEEE-NH2; C-terminus assumed) 7.5
